target entity: Neu5Ac(a2-6)Gal
test summary: glycan array binding signal (z-score within array); higher = stronger binding
test settings: glycan notation: IUPAC condensed, linker removed
The sample as a whole holds a higher share of the strongest signals than the screen did.
// reported glycan array binding signal (z-score) for each item listed
Reply briefly: the number, and no unit.

Reference set (2 entries):
SalT (Orysata sativa) (protein) MTLVKIGLWGGNGGSAQDISVPPKKLLGVTIYSSDAIRSIAFNYIGVDGQEYAIGPWGGGEGTSTEIKLGSSEHIKEISGTHGPVYDLADIVTYLKIVTSANNTYEAGVPNGKEFSIPLQDSGHVVGFFGRSGTLIDAIGIYVHPILEQKLISEEDLNSAVDHHHHHH | -0.305
Arath Fbox LD (Arabidopsis thaliana) (protein) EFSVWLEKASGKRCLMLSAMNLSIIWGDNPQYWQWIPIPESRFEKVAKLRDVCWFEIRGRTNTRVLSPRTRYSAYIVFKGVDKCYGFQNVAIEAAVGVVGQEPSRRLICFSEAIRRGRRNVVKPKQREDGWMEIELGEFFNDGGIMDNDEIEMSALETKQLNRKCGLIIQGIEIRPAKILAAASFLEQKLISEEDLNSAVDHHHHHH | 2.83

Exam item: glycan array binding signal (z-score) for Langerin K299A/K313A (Homo sapiens), Q9UJ71 (protein) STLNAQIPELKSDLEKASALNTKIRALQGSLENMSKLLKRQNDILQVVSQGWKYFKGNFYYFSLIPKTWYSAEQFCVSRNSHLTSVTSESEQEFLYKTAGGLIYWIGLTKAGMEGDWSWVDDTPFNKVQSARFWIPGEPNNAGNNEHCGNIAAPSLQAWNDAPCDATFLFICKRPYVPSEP ?
Marked response: 0.01

Exam item: glycan array binding signal (z-score) for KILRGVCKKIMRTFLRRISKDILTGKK [NK2 (Sus scrofa)] ?
Marked response: -0.071
